# System: Epidermal growth factor receptor (Homo sapiens), P00533 [L858R,T790M]
# Sequence (P00533 whole entry T790M/L858R, looked up): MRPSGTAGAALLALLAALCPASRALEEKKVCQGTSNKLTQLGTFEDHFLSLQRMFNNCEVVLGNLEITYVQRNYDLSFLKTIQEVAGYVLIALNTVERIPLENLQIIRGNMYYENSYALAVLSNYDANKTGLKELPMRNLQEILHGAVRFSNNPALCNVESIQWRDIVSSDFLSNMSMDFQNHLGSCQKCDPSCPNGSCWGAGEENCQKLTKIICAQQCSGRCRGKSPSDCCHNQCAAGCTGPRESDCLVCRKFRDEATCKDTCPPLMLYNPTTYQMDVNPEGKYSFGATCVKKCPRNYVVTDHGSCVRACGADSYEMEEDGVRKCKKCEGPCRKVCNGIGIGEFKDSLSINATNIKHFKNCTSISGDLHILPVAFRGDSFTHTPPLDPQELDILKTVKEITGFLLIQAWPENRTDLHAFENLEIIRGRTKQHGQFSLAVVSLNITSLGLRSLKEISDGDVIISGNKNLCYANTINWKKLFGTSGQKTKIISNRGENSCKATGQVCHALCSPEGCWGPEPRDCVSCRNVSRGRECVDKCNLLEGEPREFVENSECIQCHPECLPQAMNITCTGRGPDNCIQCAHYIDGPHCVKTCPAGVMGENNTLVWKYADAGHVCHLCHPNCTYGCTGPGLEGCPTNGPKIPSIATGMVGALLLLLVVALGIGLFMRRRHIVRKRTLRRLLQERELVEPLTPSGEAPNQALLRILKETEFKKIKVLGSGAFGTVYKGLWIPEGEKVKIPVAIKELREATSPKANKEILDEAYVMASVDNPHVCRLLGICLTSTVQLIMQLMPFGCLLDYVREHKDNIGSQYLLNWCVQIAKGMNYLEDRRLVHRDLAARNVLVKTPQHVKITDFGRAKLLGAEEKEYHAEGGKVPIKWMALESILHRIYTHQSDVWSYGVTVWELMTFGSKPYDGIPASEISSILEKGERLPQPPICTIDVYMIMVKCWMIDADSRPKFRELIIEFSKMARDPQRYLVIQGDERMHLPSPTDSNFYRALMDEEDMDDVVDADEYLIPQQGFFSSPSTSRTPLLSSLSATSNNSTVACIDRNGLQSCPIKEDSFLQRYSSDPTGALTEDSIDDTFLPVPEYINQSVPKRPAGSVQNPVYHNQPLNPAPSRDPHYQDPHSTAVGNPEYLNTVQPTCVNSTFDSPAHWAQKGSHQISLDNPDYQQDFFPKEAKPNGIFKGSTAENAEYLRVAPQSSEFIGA
# experiment: Inhibition of EGFR T790M/L858R double mutant in human NCI-H1975 cells assessed as inhibition of EGF-induced ERK1/2 phosphorylation pretreated for 2 hrs followed by EGF challenge by Western blotting analysis
# Assay type: cell-based
quantity: inhibition

>  <compound>
O=C(/C=C/CN1CCC(F)(F)CC1)Nc1cc2c(Nc3ccc(F)c(Cl)c3)ncnc2s1

>  <subjectOfTest>
Epidermal growth factor receptor (Homo sapiens), P00533 [L858R,T790M]

>  <quantity>
inhibition

>  <recordedResult>
Dose-dependent effect

$$$$
>  <compound>
O=C(/C=C/CN1CCOCC1)Nc1cc2c(Nc3ccc(F)c(Cl)c3)ncnc2s1

>  <subjectOfTest>
Epidermal growth factor receptor (Homo sapiens), P00533 [L858R,T790M]

>  <quantity>
inhibition

>  <recordedResult>
Dose-dependent effect

$$$$
>  <compound>
C=CC(=O)Nc1cc2c(Nc3ccc(F)c(Cl)c3)ncnc2s1

>  <subjectOfTest>
Epidermal growth factor receptor (Homo sapiens), P00533 [L858R,T790M]

>  <quantity>
inhibition

>  <recordedResult>
Dose-dependent effect

$$$$
>  <compound>
O=C(/C=C/CN1CCCCC1)Nc1cc2c(Nc3ccc(F)c(Cl)c3)ncnc2s1

>  <subjectOfTest>
Epidermal growth factor receptor (Homo sapiens), P00533 [L858R,T790M]

>  <quantity>
inhibition

>  <recordedResult>
Dose-dependent effect

$$$$

Would you kindly look at the next entry?
// query inhibition value for entry O=C(/C=C/CN1CC2CCC1C(=O)C2)Nc1cc2c(Nc3ccc(F)c(Cl)c3)ncnc2s1 (stereo not given)
Dose-dependent effect
